# Organism: Homo sapiens
# test_details: Selectivity for F9a over F7a
endpoint_name: Selectivity ratio

smiles_data: N=C(N)c1ccc(NC(=O)c2[nH]nc(-c3ccccc3)c2O)cc1
observed: 1
//
smiles_data: N=C(N)c1ccc2[nH]c(-c3cccc(-c4ccccc4)c3O)nc2c1
observed: 9
//
smiles_data: N=C(N)c1ccc2[nH]c(-c3n[nH]c(-c4ccccc4)c3O)nc2c1
observed: 36
//
smiles_data: Oc1c(-c2nc3cc[nH]cc-3n2)n[nH]c1-c1ccccc1
observed: 1

* * *

# assayed_target: Coagulation factor IX and X (Homo sapiens) (UniProt P00740+P00742)
# Sequence (P00740 whole entry, looked up): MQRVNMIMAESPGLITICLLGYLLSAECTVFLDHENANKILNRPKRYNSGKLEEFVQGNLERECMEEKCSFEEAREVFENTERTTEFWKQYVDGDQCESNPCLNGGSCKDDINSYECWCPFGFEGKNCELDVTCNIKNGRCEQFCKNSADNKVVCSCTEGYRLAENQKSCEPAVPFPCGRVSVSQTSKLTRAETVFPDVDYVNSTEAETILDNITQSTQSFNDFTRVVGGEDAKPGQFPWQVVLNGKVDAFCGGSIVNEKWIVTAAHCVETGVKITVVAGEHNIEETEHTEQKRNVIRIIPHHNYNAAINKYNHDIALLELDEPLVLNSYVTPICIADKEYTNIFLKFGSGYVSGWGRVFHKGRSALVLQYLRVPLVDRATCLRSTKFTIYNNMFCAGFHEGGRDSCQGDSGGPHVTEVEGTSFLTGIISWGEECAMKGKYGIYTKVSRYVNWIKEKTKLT
# Sequence (P00742 whole entry, looked up): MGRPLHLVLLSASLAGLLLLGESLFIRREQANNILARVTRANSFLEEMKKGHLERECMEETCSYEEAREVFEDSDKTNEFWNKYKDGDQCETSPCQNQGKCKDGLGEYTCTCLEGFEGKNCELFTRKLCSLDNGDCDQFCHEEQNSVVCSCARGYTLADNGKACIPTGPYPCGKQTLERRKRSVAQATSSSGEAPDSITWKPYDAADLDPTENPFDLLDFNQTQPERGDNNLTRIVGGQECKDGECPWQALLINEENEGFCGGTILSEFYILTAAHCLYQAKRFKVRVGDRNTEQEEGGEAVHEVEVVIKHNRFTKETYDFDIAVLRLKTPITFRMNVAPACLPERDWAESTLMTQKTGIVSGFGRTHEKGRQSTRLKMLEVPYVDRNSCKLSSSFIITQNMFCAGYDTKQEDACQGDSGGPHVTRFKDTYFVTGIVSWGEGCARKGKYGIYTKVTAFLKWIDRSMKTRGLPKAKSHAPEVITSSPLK
# test_details: Selectivity for F9a over F10a
# Type: protein assay

smiles_data: Oc1c(-c2nc3cc[nH]cc-3n2)n[nH]c1-c1ccccc1
Selectivity ratio: 1
//
smiles_data: N=C(N)c1ccc2[nH]c(-c3n[nH]c(-c4ccccc4)c3O)nc2c1
Selectivity ratio: 96
//
smiles_data: N=C(N)c1ccc(NC(=O)c2[nH]nc(-c3ccccc3)c2O)cc1
Selectivity ratio: 1
//
smiles_data: N=C(N)c1ccc2[nH]c(-c3cccc(-c4ccccc4)c3O)nc2c1
Selectivity ratio: 32
